System: ragweed (common ragweed, Ambrosia artemisiifolia)
protocol summary: Test A postemergence, ragweed
Format: in vivo
setup conditions: Postemergence, 31 g ai/ha; visual injury on 0 to 100 scale (0 no effect, 100 complete control), approx. 10 days
measured property: Plant response rating, Ragweed
Write no unit; give the number alone.

- compound: "COC1CCCN(C(=O)c2cc(NS(=O)(=O)C(F)(F)F)c(C)cc2C)CC1 (stereo not drawn)"
  Plant response rating, Ragweed: 0

Tell me the measured Plant response rating, Ragweed of COC(=O)N(c1cc(C(=O)N2CCCC(OC)C2)c(C)cc1C)S(=O)(=O)C(F)(F)F (stereo not drawn) , please.
30

Continue with `Cc1cc(C)c(N(COC(=O)CC(C)C)S(=O)(=O)C(F)(F)F)cc1C1=NOC2(CCCC2)C1`
0
